Entry source: paper PMC3228901

Target: recombinant human LSD1 protein (Homo sapiens)
Assay: In vitro LSD1 demethylation assay, di-methylated H3K4 peptide, mass-spectrometry
Settings: read-out: half maximal inhibitory concentration (IC50) for LSD1, 30 °C, 1 hour, MS peak areas
pIC50: −log10 of the molar value.
PROPERTY MEASURED: pIC50

a: COC(=O)c1cc(CN2CCN(C(=N)N)CC2)cc(C(=O)N2CCN(C(=O)c3ccc(C(=N)N)cc3)CC2)c1
b: N=C(N)c1ccc(C(=O)N2CCN(C(=O)c3cc(CN4CCN(C(=N)N)CC4)cc([N+](=O)[O-])c3)CC2)cc1
Could you determine which record has the numerically smaller pIC50? Candidates: a and b Answer by stating the label of the chosen item.
b
(b: 4.98, a: 5.28)
